Parameter: pKd. Scope: all listed entries.
# TARGET_OR_TEST_SYSTEM: T1, Human TIGIT protein with HIS tag (human, UniProt Q495A1 22-141)
# T1 construct: A soluble analyte is probably only the extracellular part; also called human TIGIT recombinant protein; not shown: HIS tag
# T1 sequence: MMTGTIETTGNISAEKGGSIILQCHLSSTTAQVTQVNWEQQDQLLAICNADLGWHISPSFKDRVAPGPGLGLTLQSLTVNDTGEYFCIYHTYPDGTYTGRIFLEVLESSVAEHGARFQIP
# PROTOCOL_DESCRIPTION: SPR Biacore T200; antibody Fc-captured, TIGIT-His analyte
// pKd: -log10(molar conc.)

48B5G4E12 (antibody, V domains shown, Mouse monoclonal antibody; also called mouse anti-human TIGIT monoclonal antibody 48B5G4E12) VH: QVQLQQPGAELVKPGASVKMSCKASGYTFTSYNMHWVKQTPGQGLEWIGGIYPGNGATSYNQKFKGKATLTADKSSSTAYMQLSSLTSEDSAVYYCARSGLRAMDYWGQGTSVTVSS VL: QIVLTQSPAIMSASPGEKVTMTCSASSSVSYMYWYQQKTGSSPRLLIYDTSNLASGVPVRFSGSGSGTSYSLTISRMEAEDAATYYCQQWSSYPYTFGGGTKLEIK
7.96
70A11A8E6 (antibody, V domains shown, Mouse monoclonal antibody; also called mouse anti-human TIGIT monoclonal antibody 70A11A8E6) VH: DVQLQESGPGLVKPSQSLSLTCTVTGYSITSDYAWNWIRQFPGNKLEWMGYIIYSGSTSYNPSLKSRISITRDTSKNQFFLQLNSVTTEDTATYYCARGWFRRPDYWGQGTTLTVSS VL: DIVMTQSHEFMSTSLGDRVSITCKASQDVSTAVAWHQQKPGQSPKQLIYSASYRYTGVPDRFTGSGSGTDFTFTISNMQAEDLAVYYCQQHYSVPLTFGAGTKLELK
8.28
104G12E12G2 (antibody, V domains shown, Mouse monoclonal antibody; also called mouse anti-human TIGIT monoclonal antibody 104G12E12G2) VH: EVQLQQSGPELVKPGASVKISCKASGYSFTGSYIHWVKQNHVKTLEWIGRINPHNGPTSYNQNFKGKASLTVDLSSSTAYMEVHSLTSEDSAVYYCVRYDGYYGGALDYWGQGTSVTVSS VL: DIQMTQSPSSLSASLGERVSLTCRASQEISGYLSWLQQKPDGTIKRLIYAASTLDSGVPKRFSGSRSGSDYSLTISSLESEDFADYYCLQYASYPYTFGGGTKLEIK
8.64
83G6H11C12 (antibody, V domains shown, Mouse monoclonal antibody; also called mouse anti-human TIGIT monoclonal antibody 83G6H11C12) VH: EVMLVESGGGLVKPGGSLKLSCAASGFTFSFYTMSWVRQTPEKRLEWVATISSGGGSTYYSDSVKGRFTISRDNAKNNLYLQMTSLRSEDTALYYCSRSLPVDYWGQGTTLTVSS VL: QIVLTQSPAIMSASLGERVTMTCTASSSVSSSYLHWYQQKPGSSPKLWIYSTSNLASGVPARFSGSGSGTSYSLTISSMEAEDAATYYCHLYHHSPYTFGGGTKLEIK
9.15

Would you kindly look at the next entry?
Query :: Fill in: pKd of 128E3G7F5 (antibody, V domains shown, Mouse monoclonal antibody; also called mouse anti-human TIGIT monoclonal antibody 128E3G7F5) VH: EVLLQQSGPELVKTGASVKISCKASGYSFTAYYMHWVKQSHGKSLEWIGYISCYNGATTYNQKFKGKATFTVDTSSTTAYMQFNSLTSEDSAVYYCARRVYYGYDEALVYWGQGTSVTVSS VL: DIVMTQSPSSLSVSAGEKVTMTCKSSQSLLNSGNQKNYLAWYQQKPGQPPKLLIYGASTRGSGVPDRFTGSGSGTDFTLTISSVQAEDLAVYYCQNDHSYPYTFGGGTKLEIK is ___
Result :: 8.17

Every entry's value here was drawn from patent US20210095028A1.
